Below, each of the compounds is paired with its reported IC50 value.
- Test system: HepG2 cells
- CONDITION SET: Homo sapiens, HepG2, read-out: ACLY HepG2 14C-Pyruvate Assay serum free IC50 FA (IC50) [μM]

O=C(Nc1cc(-c2ccccc2)c(F)cc1C(=O)O)c1cc(Cl)cc(Cl)c1 1 to 10 µM
COc1ccc(-c2ccccc2)cc1NS(=O)(=O)c1cc(Br)cc(Cl)c1O 1 to 10 µM
COc1ccc(-c2ccccc2)cc1NS(=O)(=O)c1c(C)c(Cl)cc(Cl)c1O 1 to 10 µM
O=S(=O)(Nc1cc(-c2ccccc2)c(F)cc1F)c1cc(Br)cc(Cl)c1O > 10 µM

[in] Which IC50 reading was recorded for the compound COC(=O)c1cc(Cl)c(O)c(S(=O)(=O)Nc2cc(-c3ccccc3)c(F)cc2F)c1 ?
[out] > 10 µM

The measurements presented in this section are drawn from patent US11555012B2.
